Target: Acetylcholinesterase (Mus musculus) (UniProt P21836)
Sequence (whole entry): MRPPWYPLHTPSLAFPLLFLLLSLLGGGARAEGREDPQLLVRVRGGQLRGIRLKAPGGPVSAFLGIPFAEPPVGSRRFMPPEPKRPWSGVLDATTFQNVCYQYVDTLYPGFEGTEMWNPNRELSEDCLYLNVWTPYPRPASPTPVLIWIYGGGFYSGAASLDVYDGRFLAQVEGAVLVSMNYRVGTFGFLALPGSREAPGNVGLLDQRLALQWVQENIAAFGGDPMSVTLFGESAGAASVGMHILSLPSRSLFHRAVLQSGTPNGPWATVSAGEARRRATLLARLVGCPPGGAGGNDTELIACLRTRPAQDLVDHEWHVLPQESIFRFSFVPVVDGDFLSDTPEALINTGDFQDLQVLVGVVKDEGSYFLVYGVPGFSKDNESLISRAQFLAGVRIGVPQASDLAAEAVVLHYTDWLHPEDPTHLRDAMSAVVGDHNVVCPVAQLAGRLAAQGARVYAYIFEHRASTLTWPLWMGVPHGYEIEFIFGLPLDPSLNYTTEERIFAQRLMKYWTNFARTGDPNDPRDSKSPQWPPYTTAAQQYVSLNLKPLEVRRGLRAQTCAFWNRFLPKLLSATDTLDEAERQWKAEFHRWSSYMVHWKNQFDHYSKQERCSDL
Assay: Inhibition of AchE in albino LACA mouse brain at 10^-3 M using acetylthiocholine iodide as substrate incubated for 10 mins measured for 2 mins by Ellman's method relative to control
Where inhibition equals or exceeds 5%, the correct label is t; where it does not, the label is f.

input: Does COc1cc2c(cc1OC)C(=O)C(CC1CCN(CC(=O)Nc3ccc(Cl)cc3)CC1)C2 (stereo not given) have a reported inhibition of at least 5%?
output: f

input: What do we get for COc1ccc(NC(=O)CN2CCC(CC3Cc4cc(OC)c(OC)cc4C3=O)CC2)cc1OC (stereo not given) ?
output: t

input: What do we get for COc1cc2c(cc1OC)C(=O)C(CC1CCN(CC(=O)Cc3nc4cc(OC)c(OC)cc4s3)CC1)C2 (stereo not given) ?
output: f

input: What do we get for COc1cc2c(cc1OC)C(=O)C(CC1CCN(CC(=O)Cc3nc4ccc(F)cc4s3)CC1)C2 (stereo not given) ?
output: f

input: What do we get for COc1cc2c(cc1OC)C(=O)C(CC1CCN(CC(=O)Cc3nc4ccccc4s3)CC1)C2 (stereo not given) ?
output: f
